FYI, the data here is from PubChem BioAssay AID2060502.

Each entry below carries its recorded viability, T/C.
Tested on: 885724-159-R-J1-PDC complex spheroid viability
Assay explanation: Anticancer human tumor 885724-159-R-J1-PDC patient-derived pancreatic adenocarcinoma cell line growth inhibition [GQUAD]
Setup conditions: second compound 10 µM; first compound 3.16 µM; active compounds read low
Express your answer in %, writing the number without its unit.

Some compounds with known viability, T/C results, for comparison:
| Compound | viability, T/C, % |
| --- | --- |
| CCCS(=O)(=O)Nc1ccc(F)c(C(=O)c2c[nH]c3ncc(-c4ccc(Cl)cc4)cc23)c1F + CN(C)c1ccc(Nc2c3ccc(NC(=O)CCN4CCCC4)cc3nc3cc(NC(=O)CCN4CCCC4)ccc23)cc1 | 93.9 |
| CC1COCCN1c1cc(-c2ccnn2C)c2ccnc(-c3ccn[nH]3)c2n1 (stereo not drawn) + Cc1[nH]c2ccc(F)cc2c1-c1nc2c3cccnc3c3ncccc3c2[nH]1 | 51.8 |

Could you now look at the following compound, please?
Enquiry: // returns reported viability, T/C for input CC1COCCN1c1cc(C2(S(C)(=N)=O)CC2)nc(-c2ccnc3[nH]ccc23)n1 (stereo not drawn) + Cc1[nH]c2ccc(F)cc2c1-c1nc2c3cccnc3c3ncccc3c2[nH]1
Return: 61.1

---

Test system: 885724-159-R-J1-PDC complex spheroid viability
Assay explanation: Anticancer human tumor 885724-159-R-J1-PDC cell line growth inhibition [GQUAD];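 note: spheroids exposed to agents for seven days before readout; percent of vehicle control viability where 100% = DMSO wells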
Setup conditions: second compound 0.1 µM; first compound 3.16 µM; active compounds read low
Under this convention, Criterion met denotes viability, T/C strictly below 90% and Criterion not met denotes viability, T/C at or above 90%.

Solved cases below.
| Compound | Subject of test | Assigned class |
| --- | --- | --- |
| COc1ncnc(C2CC2)c1-c1ncc2cnn(Cc3ccc(-c4nc(C(F)(F)F)cn4C(C)C)cc3)c2n1 + Cc1cnc(CNC(=O)c2c(=O)c3ccc(N4CCCN(C)CC4)nc3n3c2sc2ccccc23)cn1 | 885724-159-R-J1-PDC complex spheroid viability | Criterion not met |
| COc1cc(C2c3cc4c(cc3C(OC3OC5COC(C)OC5C(O)C3O)C3COC(=O)C23)OCO4)cc(OC)c1O (stereo not given) + CN(C)c1ccc(Nc2c3ccc(NC(=O)CCN4CCCC4)cc3nc3cc(NC(=O)CCN4CCCC4)ccc23)cc1 | 885724-159-R-J1-PDC complex spheroid viability | Criterion met |
| O=c1[nH]cc(F)c(=O)[nH]1 + Cc1[nH]c2ccc(F)cc2c1-c1nc2c3cccnc3c3ncccc3c2[nH]1 | 885724-159-R-J1-PDC complex spheroid viability | Criterion not met |

API: the following record is the query input.
Enquiry: Is 90% strictly greater than the compound's reported viability, T/C? compound: CC(=O)O[C@H]1C(=O)[C@@]2(C)[C@H]([C@H](OC(=O)c3ccccc3)[C@]3(O)C[C@H](OC(=O)[C@H](O)[C@@H](NC(=O)c4ccccc4)c4ccccc4)C(C)=C1C3(C)C)[C@]1(OC(C)=O)CO[C@@H]1C[C@@H]2O + Cc1[nH]c2ccc(F)cc2c1-c1nc2c3cccnc3c3ncccc3c2[nH]1
Return: Criterion met

---

System: 885724-159-R-J1-PDC complex spheroid viability
Assay explanation: Anticancer human tumor 885724-159-R-J1-PDC cell line growth inhibition [GQUAD];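 note: spheroids exposed to agents for seven days before readout; percent of vehicle control viability where 100% = DMSO wells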
Setup conditions: second compound 0.1 µM; first compound 0.316 µM; active compounds read low
Text: DNA G-quadruplex Stabilizer Agents in Combinations in Complex Spheroids A high-throughput screen of multi-cell type tumor spheroids was designed to identify active combinations of DNA G-quadruplex stabilizer agents and targeted small molecules. […] Compounds. […] If the clinical Cmax for an agent had not been determined, the highest concentration tested was 10 microM. […]
# viability, T/C annotations
Answer format: numeric, % implied, no suffix.

Take a look at these entries with their results.
| Molecule | viability, T/C [%] |
| --- | --- |
| CCCS(=O)(=O)Nc1ccc(F)c(C(=O)c2c[nH]c3ncc(-c4ccc(Cl)cc4)cc23)c1F + Cc1[nH]c2ccc(F)cc2c1-c1nc2c3cccnc3c3ncccc3c2[nH]1 | 116 |
| CC1COCCN1c1cc(-c2ccnn2C)c2ccnc(-c3ccn[nH]3)c2n1 (configuration not stated) + Cc1cnc(CNC(=O)c2c(=O)c3ccc(N4CCCN(C)CC4)nc3n3c2sc2ccccc23)cn1 | 82.4 |
| Cn1ncnc1[C@H]1c2n[nH]c(=O)c3cc(F)cc(c23)N[C@@H]1c1ccc(F)cc1 + Cc1cnc(CNC(=O)c2c(=O)c3ccc(N4CCCN(C)CC4)nc3n3c2sc2ccccc23)cn1 | 92.2 |
| CC(C)n1c(=O)n(C)c2cnc3cc(F)c(-c4ccc(OCCCN5CCCCC5)nc4)cc3c21 + Cc1[nH]c2ccc(F)cc2c1-c1nc2c3cccnc3c3ncccc3c2[nH]1 | 100 |
| CC1COCCN1c1cc(C2(S(C)(=N)=O)CC2)nc(-c2ccnc3[nH]ccc23)n1 (configuration not stated) + Cc1[nH]c2ccc(F)cc2c1-c1nc2c3cccnc3c3ncccc3c2[nH]1 | 95.7 |
| CC1COCCN1c1cc(-c2ccnn2C)c2ccnc(-c3ccn[nH]3)c2n1 (configuration not stated) + CN(C)c1ccc(Nc2c3ccc(NC(=O)CCN4CCCC4)cc3nc3cc(NC(=O)CCN4CCCC4)ccc23)cc1 | 70.9 |

Read the next record carefully.
Enquiry: Given O=c1[nH]cc(F)c(=O)[nH]1 + CN(C)c1ccc(Nc2c3ccc(NC(=O)CCN4CCCC4)cc3nc3cc(NC(=O)CCN4CCCC4)ccc23)cc1 , state its recorded viability, T/C.
Return: 101
